target: Gal(a1-3)Gal; test: glycan array binding signal (z-score within array); higher = stronger binding; settings: glycan notation: IUPAC condensed, linker removed
About 410 targets per protein were measured; listed, in parts, are those with the strongest signals and a random draw of the rest.
QUANTITY_MEASURED: glycan array binding signal (z-score)

[[record]]
binder = "CLEC9a (Mus musculus), Q8BRU4 (protein) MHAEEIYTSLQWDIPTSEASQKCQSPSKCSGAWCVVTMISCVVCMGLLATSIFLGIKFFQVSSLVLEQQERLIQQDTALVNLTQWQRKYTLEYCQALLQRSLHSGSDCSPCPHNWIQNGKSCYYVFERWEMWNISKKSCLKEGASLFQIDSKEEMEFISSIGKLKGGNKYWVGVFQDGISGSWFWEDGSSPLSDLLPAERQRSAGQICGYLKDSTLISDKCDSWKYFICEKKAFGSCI"
quantitative_result = 1.37

[[record]]
binder = "BDCA-2 (Homo sapiens), Q8WTT0 (protein) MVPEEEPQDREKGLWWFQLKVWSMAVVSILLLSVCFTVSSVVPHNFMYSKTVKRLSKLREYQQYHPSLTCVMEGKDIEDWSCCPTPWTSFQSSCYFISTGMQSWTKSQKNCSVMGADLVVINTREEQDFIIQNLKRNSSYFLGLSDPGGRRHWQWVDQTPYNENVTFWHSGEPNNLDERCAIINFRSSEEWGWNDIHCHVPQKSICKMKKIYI"
quantitative_result = -0.284

[[record]]
binder = "Ovorubin (Pomacea canaliculata), J7I2T6 (protein) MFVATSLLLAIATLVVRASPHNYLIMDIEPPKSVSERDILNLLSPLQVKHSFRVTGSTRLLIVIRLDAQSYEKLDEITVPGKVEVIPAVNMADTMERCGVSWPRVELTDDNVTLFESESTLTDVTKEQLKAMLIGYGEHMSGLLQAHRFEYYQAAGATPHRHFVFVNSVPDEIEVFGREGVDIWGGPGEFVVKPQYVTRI"
quantitative_result = -0.576

[[record]]
binder = "AICL (Homo sapiens), Q92478 (protein) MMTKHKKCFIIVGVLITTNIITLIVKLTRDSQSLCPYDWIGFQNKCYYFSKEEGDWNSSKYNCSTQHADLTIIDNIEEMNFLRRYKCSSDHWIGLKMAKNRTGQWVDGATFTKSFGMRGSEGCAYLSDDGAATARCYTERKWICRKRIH"
quantitative_result = -0.224

[[record]]
binder = "CLEC-1 (Homo sapiens), Q9NZH3 (protein) MQAKYSSTRDMLDDDGDTTMSLHSQASATTRHPEPRRTEHRAPSSTWRPVALTLLTLCLVLLIGLAAWGLLFFQYYQLSNTGQDTISQMEERLGNTSQELQSLQVQNIKLAGSLQHVAEKLCRELYNKAGAHRCSPCTEQWKWHGDNCYQFYKDSKSWEDCKYFCLSENSTMLKINKQEDLEFAASQSYSEFFYSYWTGLLRPDSGKAWLWMDGTPFTSELFHIIIDVTSPRSRDCVAILNGMIFSKDCKELKRCVCERRAGMVKPESLHVPPETLGEGD"
quantitative_result = -0.376

[[record]]
binder = "DrGal9 (Danio rerio) (protein) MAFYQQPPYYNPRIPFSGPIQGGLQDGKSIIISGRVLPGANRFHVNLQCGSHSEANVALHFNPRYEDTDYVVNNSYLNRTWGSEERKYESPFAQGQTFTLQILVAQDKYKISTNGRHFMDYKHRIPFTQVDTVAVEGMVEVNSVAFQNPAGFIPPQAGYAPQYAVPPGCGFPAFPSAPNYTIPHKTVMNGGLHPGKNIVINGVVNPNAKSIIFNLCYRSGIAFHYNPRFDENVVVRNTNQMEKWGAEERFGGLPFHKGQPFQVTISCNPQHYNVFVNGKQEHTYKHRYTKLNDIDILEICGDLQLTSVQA"
quantitative_result = -0.376

[[record]]
binder = "MIG/CXCL9 (Homo sapiens) (protein) TPVVRKGRCSCISTNQGTIHLQSLKDLKQFAPSPSCEKIEIIIATLKNGVQTCLNPDSADVKELIKKTEKQVSQKKKQKNGKKHQKKKVLKVRKSQRSRQKKTT"
quantitative_result = -0.114

